System: CCRF-CEM
Experiment: NCI tumour cell line growth inhibition, 48 h
Active and inactive are the calls of the source. No stated cut-off is given here; in the data, active = GI50 up to about 1.1 µM and inactive = higher.
Hello, when you answer, please use one of the following outcomes: active, inactive

Tell me the recorded outcome of this test for `FC(F)(Sc1ccccc1)c1nc2ccccc2o1` .
inactive

Tell me the recorded outcome of this test for `C/C(=N\NC(=O)c1ccccc1O)c1c(O)cc(C)oc1=O` .
inactive

Tell me the recorded outcome of this test for `CSc1csc(-c2ccc(-c3ccc(-c4cc(SC)cs4)s3)s2)c1` .
inactive

Tell me the recorded outcome of this test for CC(=O)OCC1OC(N2C(=O)NC(=O)C3C=C4CCCCC4=CC32)C(OC(C)=O)C1OC(C)=O (stereo unspecified) .
inactive

Tell me the recorded outcome of this test for `CCCc1c(O)c(=O)c2c(OC)cc(OC)c3c4c(OC)cc(OC)c5c(=O)c(O)c(CCC)c(c1c23)c54` .
active

Tell me the recorded outcome of this test for `CC1C2=C(CCCC2=O)N(c2ccc(Cl)cc2)C2=C1C(=O)CCC2` .
inactive

Tell me the recorded outcome of this test for COc1ccc2c3c1OC1C(F)C=CC4(O)C(C2)NCCC314 (stereo unspecified) .
active

Tell me the recorded outcome of this test for COc1cc2c(cc1O)[C@H](C)C(c1ccc(Cl)cc1)O2 (stereo partly specified) .
inactive

Tell me the recorded outcome of this test for NC1CC(=O)c2cc(Br)sc21 (stereo unspecified) .
inactive

Tell me the recorded outcome of this test for `S=c1[nH]nc(Cn2c3ccc(Br)cc3c3nc4ccccc4nc32)o1` .
inactive

Tell me the recorded outcome of this test for `Cn1cnc([N+](=O)[O-])c1Sc1nnc(-c2cccnc2)n1C` .
inactive

Tell me the recorded outcome of this test for NC(CCCC(N)P(=O)(O)O)P(=O)(O)O (stereo unspecified) .
inactive

Tell me the recorded outcome of this test for O=C1CC(O)(c2ccccc2)C(c2ccccc2)=C1c1ccccc1 (stereo unspecified) .
inactive

Tell me the recorded outcome of this test for `COC(=O)/C=C1\C(=O)N(C(C)=O)c2ccc(Br)cc21` .
inactive

Tell me the recorded outcome of this test for `CCCCCCCCCC(=O)NCCc1c[nH]c2ccc(OC)cc12` .
inactive

Tell me the recorded outcome of this test for `CCOC(=O)Cn1c(=O)n(C)c(=O)c2[nH]cnc21` .
inactive

Tell me the recorded outcome of this test for `Clc1ccc(C(c2ccc(Cl)cc2)c2ccccn2)cc1` .
inactive

Tell me the recorded outcome of this test for COc1ccc(NC(=O)CC(=O)N2N=C(c3ccccc3)C(/N=N/c3ccc(S(=O)(=O)CCOS(=O)(=O)O)cc3)C2=O)cc1 (stereo unspecified) .
inactive

Tell me the recorded outcome of this test for CCCC/C=C/C/C=C/CCCCCCCCC(=O)OCC1CCCN2CCCCC12 (stereo unspecified) .
inactive

Tell me the recorded outcome of this test for `Cc1nc2c(sc(=S)n2-c2ccccc2)c(=O)[nH]1` .
inactive

Tell me the recorded outcome of this test for `C=C1C(=O)O[C@@H]2C(=O)[C@@H](C)CCC/C(C)=C/CC[C@@]3(C)O[C@@H]3C[C@@H]12` .
inactive

Tell me the recorded outcome of this test for `C/C(CC(=O)Nc1ccc(NC(=O)C/C(C)=N\NC(N)=O)cc1)=N/NC(N)=O` .
inactive

Tell me the recorded outcome of this test for `CC(=O)c1ccc(NC(=O)COC(=O)c2cccc3c(=O)c4ccccc4[nH]c23)cc1` .
inactive

Tell me the recorded outcome of this test for `CC(=O)O[C@H]1CC[C@@]2(C)C(=CC[C@@H]3[C@@H]2CC[C@](C)(c2nnc(C)o2)[C@H]3CC#N)C1` .
inactive

Tell me the recorded outcome of this test for CSc1nc2c(nc(C)c(=O)n2C2OCC(OC(C)=O)C(OC(C)=O)C2OC(C)=O)c(=O)[nH]1 (stereo unspecified) .
inactive

Tell me the recorded outcome of this test for COc1cc(C2C(C(=O)O)=C(COC(C)=O)Oc3cc4c(cc32)OCO4)cc(OC)c1OC (stereo unspecified) .
inactive

Tell me the recorded outcome of this test for `C[N+]1(C)C/C(=C\C=C\c2ccccc2)C(=O)/C(=C/C=C/c2ccccc2)C1` .
inactive

Tell me the recorded outcome of this test for CC(NC(=O)C(C)NC(=O)C(N)CCP(C)(=O)O)C(=O)O (stereo unspecified) .
inactive

Tell me the recorded outcome of this test for COC(=O)C(=O)C1(CCC(C)=O)c2ccccc2-c2c(C)ccc(C)c21 (stereo unspecified) .
inactive

Tell me the recorded outcome of this test for `CC(=O)C=C1Nc2ccccc2N1` .
inactive

Tell me the recorded outcome of this test for `N=c1oc2ccc3ccccc3c2cc1C(N)=O` .
inactive

Tell me the recorded outcome of this test for `O=C1C([N-]S(=O)(=O)c2ccccc2)=C([n+]2ccc(Cc3ccccc3)cc2)C(=O)c2ccccc21` .
inactive

Tell me the recorded outcome of this test for COc1ccc(C2C(=O)c3ccc(OC)cc3OC2c2cccnc2)cc1 (stereo unspecified) .
inactive

Tell me the recorded outcome of this test for `Cc1ccc(/C=C2\CCS(=O)(=O)c3ccccc3C2=O)cc1` .
inactive

Tell me the recorded outcome of this test for `Cc1nc(C(N)=S)sc1C(=O)CC(=O)C(=O)Nc1ccccc1[N+](=O)[O-]` .
inactive

Tell me the recorded outcome of this test for `Nc1cc2c3c(cccc3c1)C(=O)N(c1ccc(OCCN3CCCC3)cc1)C2=O` .
inactive

Tell me the recorded outcome of this test for CC1C[C@@H]2C(=O)NC(=O)[C@@H]2c2c1c1ccccc1n2C (stereo partly specified) .
inactive

Tell me the recorded outcome of this test for `O=c1cc(-c2ccccc2)oc2ccc(Oc3nnnn3-c3ccccc3)cc12` .
inactive

Tell me the recorded outcome of this test for COC(=O)C1=CC(NC(=O)OCc2ccccc2)C(C(=O)c2ccccc2)C[C@@H]1Sc1ccccc1 (stereo partly specified) .
inactive

Tell me the recorded outcome of this test for `CSC(=O)c1sc(SC)[n+](-c2ccccc2)c1O` .
inactive

Tell me the recorded outcome of this test for `CCOC(=O)[C@H]1C[C@]23CN(C(=O)OC(C)(C)C)CC[C@H]2CCC2(SCCCS2)[C@@H]3N1C` .
inactive
